- Target desc: Fibroblast growth factor 10 (Homo sapiens)
- Test protocol: compounds binding fibroblast growth factor 10 – biochemical, small-molecule microarray, 635 nm fluorescence, primary screen (AID 1102)
- Condition: FGF10 binding, fluorescence 635 nm, higher = more signal
The label depends only on composite z-score: label 1 if it is at least 1, label 0 if it is smaller.

Check out these entries, answers already filled in.
[[record]]
compound = "O=C1NC(=O)C2C1C=CC(C(O)c1ccco1)N2Nc1ccc(Cl)cc1Cl (stereo not given)"
target_desc = "Fibroblast growth factor 10 (Homo sapiens)"
category = "label 0"

[[record]]
compound = "C=C(COC)/C(=C/C[C@H](OC(=O)c1ccncc1)c1ccc(CO)o1)c1cnc2ccccc2c1"
target_desc = "Fibroblast growth factor 10 (Homo sapiens)"
category = "label 1"

[[record]]
compound = "COc1ccc([C@H]2OC[C@@H]3C[C@H](Cc4ccccc4)C(=O)N32)cc1"
target_desc = "Fibroblast growth factor 10 (Homo sapiens)"
category = "label 0"

[[record]]
compound = "COc1cccc(C)c1NC(=O)O[C@H]1[C@H](OC(=O)Nc2ccc3c(c2)OCO3)[C@@H](OC(=O)Nc2ccc3c(c2)OCO3)[C@@H](OC)O[C@@H]1CO"
target_desc = "Fibroblast growth factor 10 (Homo sapiens)"
category = "label 1"

[[record]]
compound = "CCOC(=O)C1=CC[C@@H](c2ccccc2F)N(S(=O)(=O)c2ccc(C)cc2)[C@H]1c1ccccc1"
target_desc = "Fibroblast growth factor 10 (Homo sapiens)"
category = "label 0"


Quick check: does COC(=O)C1(CC(C)C)C=C2C(=C(c3ccccc3)C(=O)C2C)CN1 (stereo not given) have composite z-score greater than or equal to 1?
label 0

Now try `CN(C)CCCCCCNC(=O)[C@@H]1C[C@@H]2C(=O)N3CCC[C@H]3C(=O)N2[C@@H]1c1cccc(OCCO)c1` .
label 0

Now try `CCC#CCN(Cc1ccccc1Br)[C@H](/C=C/C1CC1)[C@@H](O)Cc1ccccc1` .
label 0

Now try COC(=O)C1=CC(CCCO)=CC(c2cccs2)N(Cc2cccc(OC(F)(F)F)c2)C=C1C(=O)OC (stereo not given) .
label 0

Now try `Cc1ccc(S[C@]2(C(=O)NCc3ccccc3)CC(=O)N(C3CCCCC3)[C@@H]2c2ccc(CO)cc2I)cc1` .
label 0

Now try `CCCCC(=C=CC[C@H](O)c1ccc(OCCO)cc1)CCO` .
label 0

Now try `COc1ccc([Si](C)(C)[C@@H]2[C@@H](CC(=O)N3Cc4ccccc4C[C@H]3CO)O[C@]3(C(=O)N(Cc4ccc(N5C(=O)c6cccc7cccc5c67)cc4)c4ccccc43)[C@H]2C)cc1` .
label 1

Now try `C=C(COC)C(=O)CC[C@@H](OC(C)=O)c1cccc(OCCO)c1` .
label 1

Now try C=CCC(OC(C)=O)[C@@H]1[C@@H](N(Cc2ccc(-c3cccc(C(F)(F)F)c3)o2)C(=O)c2ccc(-c3ccccc3)cc2)c2cc(OCCCO)ccc2N1C(=O)Cc1ccc2ccccc2c1 (stereo not given in full) .
label 0

----------
composite z-score values for the compounds below.
- Target desc: Torsin-1A (Homo sapiens) (UniProt O14656)
- Sequence (O14656 whole entry, looked up): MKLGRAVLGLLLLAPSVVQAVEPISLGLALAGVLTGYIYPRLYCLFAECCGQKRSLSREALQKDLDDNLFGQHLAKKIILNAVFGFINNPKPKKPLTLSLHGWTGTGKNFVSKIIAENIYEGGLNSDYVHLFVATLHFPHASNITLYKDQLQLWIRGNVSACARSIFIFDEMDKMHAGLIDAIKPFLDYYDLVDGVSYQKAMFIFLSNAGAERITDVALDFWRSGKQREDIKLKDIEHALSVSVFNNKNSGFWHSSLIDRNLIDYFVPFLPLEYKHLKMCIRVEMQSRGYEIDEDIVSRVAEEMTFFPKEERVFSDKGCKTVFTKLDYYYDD
- Test protocol: torsin A mutant lysate binding on microarrays – cell lysate, small-molecule microarray, COS7 lysate, 635/667 nm fluorescence, primary screen (AID 1150);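 further: score pools 667 nm emission and signal to noise measuring lysate protein binding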
- Condition: COS7 hTOR1A mutant lysate, 635 nm fluorescence, higher = more signal
Respond numerically, and do not add a unit to the figure.

[[record]]
compound = "C=CC[C@@]1(C(=O)NCCCOC)N=C(c2ccc(OCCCO)cc2)O[C@@H]1c1ccccc1N=[N+]=[N-]"
endpoint_value = -0.112

[[record]]
compound = "COc1ccc(CCNC(=O)[C@@]2(Sc3ccc(C)cc3)CC(=O)N(Cc3ccccc3C(F)(F)F)[C@@H]2c2ccc(CO)cc2I)cc1"
endpoint_value = -0.702


Turning to the following compound.
# get_value(readout='composite z-score', item= `C=C[C@H](C)[C@H](OC(=O)Nc1ccc(SC)cc1)c1ccc(OCCO)cc1` )
0.937

// provenance: PubChem BioAssay
